Listed here are sequences together with their documented protein stability index.
System: Saccharomyces cerevisiae
assay.summary: protein stability index of tFT-peptide fusion (C-terminal peptide) (PSI (0-1 scale)); higher = more stable (slower turnover);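 further: PSI is a weighted mean of sequencing reads over stability bins, variants kept only with over 10 reads, mCherry proximal and sfGFP distal, peptide attached via GGGS linker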
recorded.conditions: genetic background: cdc53-1; temperature: 37 C
// no unit string in output, number only

Please review the entries below; each comes with its answer.
Which protein stability index is listed for RCRLYLNVVVLC ?
0.31

Which protein stability index is listed for FPPRLIPLLARS ?
0.456

Which protein stability index is listed for SSCFLLFRVVWR ?
0.321

Now look at this entry.
Which protein stability index is listed for GFFCFLYFVVMF ?
0.169

###

Listed here are sequences together with their documented protein stability index.
System: Saccharomyces cerevisiae
assay.summary: protein stability index of tFT-peptide fusion (C-terminal peptide) (PSI (0-1 scale)); higher = more stable (slower turnover)
recorded.conditions: genetic background: wild type; temperature: 30 C
// no unit string in output, number only

Lab request: please report protein stability index under test system Saccharomyces cerevisiae for KKKKKKKKKKKK
0.636

Lab request: please report protein stability index under test system Saccharomyces cerevisiae for EVCTFPGSIRSS
0.521

Lab request: please report protein stability index under test system Saccharomyces cerevisiae for SHHSVNWKPQGL
0.668

Now look at this entry.
Lab request: please report protein stability index under test system Saccharomyces cerevisiae for FLVFRPPALFLR
0.218
